Here, each record is paired with measured Ki data.
Biological target: 5-hydroxytryptamine receptor 2A (Homo sapiens, UniProt P28223)
Sequence (P28223 whole entry): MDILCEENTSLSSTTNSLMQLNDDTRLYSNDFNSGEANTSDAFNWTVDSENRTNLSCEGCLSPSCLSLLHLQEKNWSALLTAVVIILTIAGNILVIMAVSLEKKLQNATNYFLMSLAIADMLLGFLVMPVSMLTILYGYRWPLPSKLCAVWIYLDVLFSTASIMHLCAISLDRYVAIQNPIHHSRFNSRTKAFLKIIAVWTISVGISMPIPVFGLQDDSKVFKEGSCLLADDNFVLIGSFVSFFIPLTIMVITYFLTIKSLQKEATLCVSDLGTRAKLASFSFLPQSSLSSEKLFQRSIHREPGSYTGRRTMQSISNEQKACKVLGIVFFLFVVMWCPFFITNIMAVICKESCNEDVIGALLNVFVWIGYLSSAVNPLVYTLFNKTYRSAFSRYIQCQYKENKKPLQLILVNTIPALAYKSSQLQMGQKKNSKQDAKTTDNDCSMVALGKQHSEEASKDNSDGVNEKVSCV
Assay: Antagonist activity at human 5HT2A receptor expressed in HEK cells assessed as inhibition of intracellular calcium accumulation by aequorin assay
Write the number in nM without appending the unit.

See these solved cases before continuing.
Q: Recorded Ki of O=C(O)[C@H]1[C@@H]2CN(C3CCC4(Cc5ccccc5Cc5ccccc54)C3)C[C@@H]21 (stereo partly specified) , please.
Result: 631

Q: Try the compound O=C(O)C1CCN(C2CC[C@]3(Cc4ccccc4Cc4ccccc43)C2)CC1 (stereo partly specified)
Result: 79.4

Q: Another compound to look at: O=C(O)C1(F)CCN(C2CCC3(Cc4ccccc4Oc4ccccc43)C2)CC1 (stereo unspecified)
Result: 398

Q: Record: O=C(O)C1(F)CCN(C2CC[C@]3(Cc4ccccc4Cc4ccccc43)C2)CC1 (stereo partly specified)
Result: 50.1

Q: Please answer likewise for O=C(O)C1CCN(C2CCC3(C2)C(=O)c2cc(Cl)ccc2Oc2ccccc23)CC1 (stereo unspecified)
Result: 398

Further cases:
Q: Name the recorded Ki for O=C(O)C1(F)CCCN(C2CC[C@]3(Cc4ccccc4Cc4ccccc43)C2)C1 (stereo partly specified) .
Result: 79.4

Q: Follow-up entry: O=C(O)C1CCN(C2CCC3(C2)C(=O)c2cc(F)ccc2Sc2ccccc23)CC1 (stereo unspecified)
Result: 126

Q: Then O=C(O)[C@@H]1CCCN(C2CCC3(Cc4ccccc4Oc4ccccc43)C2)C1 (stereo partly specified) ?
Result: 100

Q: Another: O=C(O)C1CN(C2CCC3(Cc4ccccc4Oc4ccccc43)C2)C1 (stereo unspecified)
Result: 31.6

Q: Also, O=C(O)C1CN(C2CC[C@]3(Cc4ccccc4Cc4ccccc43)C2)CCN1 (stereo partly specified) please.
Result: 316

====

Biological target: 5-hydroxytryptamine receptor 2A (Homo sapiens, UniProt P28223)
Assay: Antagonist activity at human 5HT2A receptor expressed in HEK cells assessed as inhibition of intracellular calcium accumulation by aequorin assay
Recorded Ki, one value per entry.
Write it as a number; the unit nM goes unstated.

Q: Field: Ki (5-hydroxytryptamine receptor 2A (Homo sapiens, UniProt P28223)). Entry: O=C(O)C1CN(C2CC[C@]3(Cc4ccccc4Cc4ccccc43)C2)CCO1 (some centres undefined)
Result: 100

Q: Now the compound CN(C)C1CC[C@]2(Cc3ccccc3Cc3ccccc32)C1 (some centres undefined)
Result: 12.6

Q: For O=C(O)CCNC1CC[C@]2(Cc3ccccc3Cc3ccccc32)C1 (some centres undefined) then?
Result: 158

Q: Another compound: O=C(O)C1=CCCN(C2CC[C@]3(Cc4ccccc4Cc4ccccc43)C2)C1 (single isomer, unassigned; stereoisomer 1)
Result: 126

Q: Also O=C(O)CC1CCN(C2CC[C@]3(Cc4ccccc4Cc4ccccc43)C2)C1 (some centres undefined) ?
Result: 20

Then this compound:
Q: Test system 5-hydroxytryptamine receptor 2A (Homo sapiens, UniProt P28223); read-out Ki; what value for CC1(C(=O)O)CCN(C2CCC3(Cc4ccccc4Cc4ccccc43)C2)CC1 (centres undefined) ?
Result: 39.8

====

Measured Ki values are reported for all entries that follow.
Molecular target: 5-hydroxytryptamine receptor 2C (Homo sapiens, UniProt P28335)
Sequence (P28335 whole entry): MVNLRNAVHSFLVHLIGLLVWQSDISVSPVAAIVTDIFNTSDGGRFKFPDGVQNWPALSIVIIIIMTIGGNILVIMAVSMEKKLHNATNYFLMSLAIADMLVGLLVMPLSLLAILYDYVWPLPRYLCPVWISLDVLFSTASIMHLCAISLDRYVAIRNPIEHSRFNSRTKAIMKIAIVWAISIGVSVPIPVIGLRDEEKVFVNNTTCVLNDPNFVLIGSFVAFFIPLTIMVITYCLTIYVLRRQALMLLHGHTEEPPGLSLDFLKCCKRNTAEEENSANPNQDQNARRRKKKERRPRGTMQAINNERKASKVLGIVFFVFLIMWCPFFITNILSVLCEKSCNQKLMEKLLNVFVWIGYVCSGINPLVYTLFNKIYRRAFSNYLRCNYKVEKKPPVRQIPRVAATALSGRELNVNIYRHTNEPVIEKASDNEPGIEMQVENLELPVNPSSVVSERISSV
Assay: Antagonist activity at human 5HT2C receptor expressed in human SH-SY5Y cells by FLIPR assay
Note: unit nM is implicit; provide only the numeric part.

Q: Item under review: CN(C)C1CC[C@]2(Cc3ccccc3Cc3ccccc32)C1 (stereo not given in full) . Reported Ki?
Result: 7.94

Q: How about O=C(O)C1=CCN(C2CCC3(Cc4ccccc4Oc4ccccc43)C2)CC1 (stereo not given) ?
Result: 1000

Q: Next molecule up: O=C(O)[C@@H]1CCCN(C2CC[C@]3(Cc4ccccc4Cc4ccccc43)C2)C1 (stereo not given in full)
Result: 31.6

Q: Further, for O=C(O)C1(O)CCN(C2CCC3(Cc4ccccc4Cc4ccccc43)C2)CC1 (stereo not given) ?
Result: 126

Q: Follow-up entry: O=C(O)C1(F)CCN(C2CC[C@]3(Cc4ccccc4Cc4ccccc43)C2)CC1 (stereo not given in full)
Result: 1000

Q: Do the same for O=C(O)C1=CCN(C2CCC3(Cc4ccccc4Cc4ccccc43)C2)CC1 (stereo not given) please
Result: 200

Q: Please do the same for O=C(O)C=C1CN(C2CCC3(Cc4ccccc4Cc4ccccc43)C2)C1 (stereo not given) as well.
Result: 251

Q: Next up: O=C(O)CC1CCN(C2CC[C@]3(Cc4ccccc4Cc4ccccc43)C2)C1 (stereo not given in full)
Result: 20

Proceed to the following item.
Q: Could you tell me which Ki is on file for O=C(O)C1CN(C2CCC3(Cc4ccccc4Oc4ccccc43)C2)C1 (stereo not given) ?
Result: 31.6

====

# reported pKi; entries follow
Molecular target: 5-hydroxytryptamine receptor 2A (Homo sapiens)
Experiment: Antagonist activity at human 5HT2A receptor expressed in HEK cells assessed as inhibition of intracellular calcium accumulation by aequorin assay
pKi: −log10 of the molar value.

Q: Entry O=C(O)C1=CCCN(C2CC[C@]3(Cc4ccccc4Cc4ccccc43)C2)C1 (stereo in doubt; 48) : reported pKi = ?
Result: < 5.70

Q: Try the compound O=C(O)C1=CCCN(C2CCC3(Cc4cc(F)ccc4Cc4ccccc43)C2)C1 (stereo not drawn)
Result: < 6.12

New cases:
Q: Please look up its pKi: O=C(O)C1=CCCN(C2CCC3(C2)C(=O)c2ccccc2Cc2ccccc23)C1 (stereo not drawn)
Result: < 5.70

====

Target: 5-hydroxytryptamine receptor 2C (Homo sapiens, UniProt P28335)
Assay: Antagonist activity at human 5HT2C receptor expressed in human SH-SY5Y cells by FLIPR assay
pKi: −log10 of the molar value.
Quantity measured: pKi

Q: Fill in: pKi of O=C(O)CC1CN(C2CCC3(Cc4ccccc4Cc4ccccc43)C2)C1 (stereo unspecified) is ___
Result: < 5.70

====

Target: UniProtKB P28335
Assay: Antagonist activity at human 5HT2C receptor expressed in human SH-SY5Y cells by FLIPR assay
pKi: −log10 of the molar value.
Listed here are compounds together with their documented pKi.

Q: For O=C(O)CCNC1CC[C@@]2(Cc3ccccc3Cc3ccccc32)C1 (stereo not given in full) , what is its reported pKi?
Result: < 5.70

Q: Try the compound O=C(O)CC1CCN(C2CCC3(Cc4ccccc4Cc4ccccc43)C2)CC1 (stereo not given)
Result: < 5.60

Q: Try the compound O=C(O)[C@H]1[C@@H]2CN(C3CCC4(Cc5ccccc5Cc5ccccc54)C3)C[C@@H]21 (stereo not given in full)
Result: < 5.70

Q: Also O=C(O)C1CCN(C2CCC3(C2)C(=O)c2cc(F)ccc2Sc2ccccc23)CC1 (stereo not given) , if possible.
Result: < 5.70

Q: Next up: O=C(O)C1=CCCN(C2CCC3(C2)C(=O)c2ccccc2Cc2ccccc23)C1 (stereo not given)
Result: < 5.70
